Assay Summary: AP1 Signaling Pathway (AID 357);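 also: ME-180 reporter cells stimulated with EGF at its EC50 level; % is scaled to controls: 0 for no effect and ±100 for the full control effect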
Conditions: ME-180 (cervical carcinoma) AP-1-bla reporter, EGF-induced, beta-lactamase ratio, 5 h; at 7.69 µM (top of the series) unless noted
Inconclusive results are not listed.
Measured activity change, negative = inhibition accompanies every entry in the list below.
Property Label: activity change, negative = inhibition (%)

In [3]: df
Out[3]:
                                     smiles                          property_label  recorded_measurement
0    CS(=O)(=O)N1CCC2(CCCN(Cc3ccccc3)C2)CC1  activity change, negative = inhibition                 -13.8
1  CN(C)C(=O)c1ccc(-c2nc(N(C)Cc3ccco3)c3ccccc3n2)cc1  activity change, negative = inhibition                 -14.5
2  CC(C)CN1CC[C@@]2(CCCN(C(=O)c3ccco3)C2)C1  activity change, negative = inhibition                 -7.86
3  CC(C)CN1CCCC2(CCN(S(=O)(=O)c3ccccc3)CC2)C1  activity change, negative = inhibition                  1.33
4  COc1ccc(NC(=O)N2CC3(CCN(C(=O)c4cc(C(F)(F)F)cc(C(F)(F)F)c4)CC3)C2)cc1  activity change, negative = inhibition                 -15.1
5  Cn1cc(-c2nc3cnc(N4CCNCC4)nc3n(-c3ccccc3)c2=O)c2ccccc21  activity change, negative = inhibition                  22.4
6     Cc1cccc(CNc2cc(-c3cccc(C#N)c3)ncn2)c1  activity change, negative = inhibition                 -11.1
7  CN1CCCC2(CCN(C(=O)c3cc(C(F)(F)F)cc(C(F)(F)F)c3)CC2)C1  activity change, negative = inhibition                  5.94
8  CS(=O)(=O)N1CCC2(CCN(Cc3ccc(C#N)cc3)CC2)CC1  activity change, negative = inhibition                  3.08
9  COc1ccc2[nH]cc(CCNc3ccnc(-c4ccc(N(C)C)cc4)n3)c2c1  activity change, negative = inhibition                  11.2

* * *

System: Ubiquitin carboxyl-terminal hydrolase 1 (Homo sapiens)
Assay Summary: Inhibitors of USP1/UAF1: Pilot qHTS (AID 504865); also: nearly all actives have a fitted effect of over 35% in size
Conditions: purified USP1/UAF1, Ub-rhodamine cleavage fluorescence; series mostly up to 54.9 µM
Excerpt: Deubiquitinating enzymes (DUBs) are a class of enzymes that can cleave isopeptide bond formed between the C-terminal carboxylate of ubiquitin and a lysine side-chain amino group on the target protein. Among them, ubiquitin specific proteases (USPs) constitute the largest DUB family. […]
Results filed as inconclusive are left out. Calls of active or inactive are those of the source. Calls come from the whole dose curve; as a rule, active = well fitted inhibition curve with a large enough effect; inconclusive = small, poorly fitted or top-dose-only effect; inactive = flat fitted curve, though single readings scatter.
Outcomes: active, inactive

                                    compound     group
 0  CS(=O)(=O)Nc1cccc(-c2cc(NCc3ccccc3)ncn2)c1  inactive
 1  Cn1cc(-c2nc3cnc(N4CCNCC4)nc3n(-c3ccccc3)c2=O)c2ccccc21  inactive
 2    N#Cc1cccc(-c2ccc3ncnc(N4CCNCC4)c3c2)c1    active
 3            COc1cccc(-c2cncnc2NCc2cccs2)c1  inactive
 4  COc1ccc(CNc2nc(-c3ccc(C(=O)N(C)C)cc3)nc3ccccc23)c(OC)c1  inactive
 5  COc1cccc(Cn2c(=O)c(C)nc3cnc(N(C)C)nc32)c1  inactive
 6  N[C@H](C(=O)O)C(O)C(O)C(O)CO (stereo partly specified)  inactive
 7        CN(C)CC[C@H](c1ccc(Br)cc1)c1ccccn1  inactive
 8  CO/N=C(\C(=O)N[C@@H]1C(=O)N2C(C(=O)O)=C(COC(C)=O)CS[C@@H]12)c1csc(N)n1  inactive
 9   N#Cc1ccccc1-c1ccc2ncnc(NCCN3CCOCC3)c2c1  inactive
10  Cc1cc(OC(=O)c2c(C)cc(O)cc2O)cc(O)c1C(=O)O  inactive
